# Test system: SNB-19 CNS
# Test protocol: NCI-60 one-dose screen, 48 h
# Experimental conditions: 10 µM unless noted
The panel holds about 83,000 compounds, 20% with a hit somewhere; the sample as a whole holds those more often. The source made the active and inactive calls. How the source made its calls: active means growth percent below 10; inactive means the rest.
Select the matching outcome among active, inactive

Answered examples (3):
COc1cccc(N2CCN(c3ncnc4cc[nH]c34)CC2)c1 :: inactive
CCOC(=O)c1ccc2c(c1)nc(-c1ccc(Cl)cc1)n2-c1cc(C(C)(C)C)[nH]n1 :: inactive
O=C(/C=C/c1ccccc1)c1c[nH]c2ccccc2c1=O :: inactive

Field: outcome | Entry: COc1cc(C2CC(c3ccc(Cl)cc3)=NN2C(C)=O)ccc1Oc1ccnc2cc(Cl)ccc12 (stereo not drawn)
inactive

# fetch the recorded call for CSc1ccc(/C=C2\C=C(CC(=O)NCc3ccc(C(=O)c4ccccc4)cc3)c3cc(F)ccc32)cc1 here
inactive

Check the results log: what was the call for CC[C@]1(O)C[C@H]2CN(CCc3c([nH]c4ccccc34)C(C(=O)OC)(c3cc4c(cc3OC)N(C)[C@H]3[C@@](O)(C(=O)OC)[C@H](OC(C)=O)[C@]5(CC)[C@@H]6C[C@@H]6CN6CC[C@]43[C@@H]65)C2)C1 (stereo partly drawn) ?
inactive
